Biological target: hERG (Homo sapiens, UniProt Q12809)
Sequence (Q12809 whole entry): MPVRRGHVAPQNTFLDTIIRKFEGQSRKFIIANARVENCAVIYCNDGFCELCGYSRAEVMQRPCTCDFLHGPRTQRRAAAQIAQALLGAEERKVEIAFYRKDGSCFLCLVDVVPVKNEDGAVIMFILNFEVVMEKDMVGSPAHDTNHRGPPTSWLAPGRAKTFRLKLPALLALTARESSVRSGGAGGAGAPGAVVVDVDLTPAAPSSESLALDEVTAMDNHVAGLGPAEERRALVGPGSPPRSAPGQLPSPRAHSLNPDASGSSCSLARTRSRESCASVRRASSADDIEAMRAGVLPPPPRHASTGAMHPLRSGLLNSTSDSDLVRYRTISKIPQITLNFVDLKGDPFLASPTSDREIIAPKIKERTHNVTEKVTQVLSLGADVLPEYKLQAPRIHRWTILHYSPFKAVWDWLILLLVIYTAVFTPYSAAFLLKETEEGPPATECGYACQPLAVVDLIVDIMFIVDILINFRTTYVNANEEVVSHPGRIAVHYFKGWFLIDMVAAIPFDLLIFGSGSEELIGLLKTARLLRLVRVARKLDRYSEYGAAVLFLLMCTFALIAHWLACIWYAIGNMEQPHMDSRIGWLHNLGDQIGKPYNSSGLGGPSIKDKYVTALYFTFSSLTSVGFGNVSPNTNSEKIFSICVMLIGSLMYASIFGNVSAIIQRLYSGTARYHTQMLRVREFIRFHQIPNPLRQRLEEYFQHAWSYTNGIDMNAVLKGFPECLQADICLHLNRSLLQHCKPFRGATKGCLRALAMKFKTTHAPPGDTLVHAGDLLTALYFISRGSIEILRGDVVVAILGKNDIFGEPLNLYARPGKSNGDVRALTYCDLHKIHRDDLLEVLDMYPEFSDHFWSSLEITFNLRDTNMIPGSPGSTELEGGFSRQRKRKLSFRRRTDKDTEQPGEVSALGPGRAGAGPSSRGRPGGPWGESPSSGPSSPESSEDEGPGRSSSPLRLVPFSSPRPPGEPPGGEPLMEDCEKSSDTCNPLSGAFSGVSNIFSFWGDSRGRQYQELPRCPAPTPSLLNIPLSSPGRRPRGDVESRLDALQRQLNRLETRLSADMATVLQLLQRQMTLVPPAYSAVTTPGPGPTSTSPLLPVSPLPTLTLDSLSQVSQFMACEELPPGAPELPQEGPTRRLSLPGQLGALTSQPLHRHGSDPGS
Experiment: Inhibition of hERG stably expressed in CHO cells by whole-cell voltage-clamp assay
Format: toxicity, cell-based
Details: human, CHO cells stably expressing hERG
Observable: IC20

# Molecule, Assay System, Observable, Result
records = [
    ("CCOC(=O)C1=C(CN2C[C@H]3CN(C4CC4)C(=O)N3C[C@@H]2C(=O)O)NC(c2nccs2)=N[C@H]1c1ccc(F)cc1Cl", "hERG (Homo sapiens, UniProt Q12809)", "IC20", "> 10 µM"),
]

[Q] For the molecule CCOC(=O)C1=C(CN2C[C@H]3CN(C)C(=O)N3C[C@@H]2C(=O)O)NC(c2nccs2)=N[C@H]1c1cccc(F)c1Cl , what IC20 is on record?
[A] > 10 µM

[Q] For the molecule COC(=O)C1=C(CN2CCN3C(=O)N(c4ccc(C(=O)O)cc4)C[C@@H]3C2)NC(c2nccs2)=N[C@H]1c1ccc(F)cc1Cl (single isomer, unassigned) , what IC20 is on record?
[A] 4 µM

[Q] For the molecule COC(=O)C1=C(CN2CCN3C(=O)N(CC(C)(C)C(=O)O)C[C@@H]3C2)NC(c2nccs2)=N[C@H]1c1ccc(F)cc1Cl , what IC20 is on record?
[A] > 10 µM

[Q] For the molecule COC(=O)C1=C(CN2CCN3C(=O)N(C4CCC(C(=O)O)CC4)C[C@@H]3C2)NC(c2nccs2)=N[C@H]1c1ccc(F)cc1Cl (stereo partly specified) , what IC20 is on record?
[A] > 10 µM

[Q] For the molecule CCOC(=O)C1=C(CN2CCN3C(=O)N(CC(C)C(=O)O)C[C@@H]3C2)NC(c2nccs2)=N[C@H]1c1ccc(F)cc1Cl (stereo partly specified) , what IC20 is on record?
[A] > 10 µM

###

Test: Cmax in female minipig at 3 mg/kg,po by LC-MS/MS analysis
Type: ADME, organism-based, Sus scrofa domesticus
Design: dose 3 mg/kg, route po
Details: pig, in vivo
Observable: Cmax (µg/mL)
// units = µg/mL; emit number, no label

[Q] For the compound CCOC(=O)C1=C(CN2CCN3C(=O)N(CC(C)(C)C(=O)O)C[C@@H]3C2)NC(c2nccs2)=N[C@H]1c1cccc(F)c1C [LINVENCORVIR] , what Cmax is on record?
[A] 0.046

###

Assay: Cmax in female Wistar Han rat at 30 mg/kg,po by LC-MS/MS analysis
Type: ADME, organism-based
Design: dose 30 mg/kg, route po
Details: in vivo
Observable: Cmax (ng/mL)
// units = ng/mL; emit number, no label

[Q] For the molecule CCOC(=O)C1=C(CN2CCN3C(=O)N(CC(C)(C)C(=O)O)C[C@@H]3C2)NC(c2nccs2)=N[C@H]1c1cccc(F)c1C [LINVENCORVIR] , what Cmax is on record?
[A] 3310

###

# CLhep predicted at 1 µM listing for each entry below
Assay: Clearance in human liver microsomes at 1 uM measured upto 30 mins in presence of NADPH by LC-MS/MS analysis
Format: ADME, Microsome
// units = mL/min/kg; emit number, no label

# Molecule, CLhep predicted at 1 µM (mL/min/kg)
data = [
    ("COC(=O)C1=C(CN2CCN3C(=O)N([C@H]4CC[C@H](C(=O)O)CC4)C[C@@H]3C2)NC(c2nccs2)=N[C@H]1c1ccc(F)cc1Cl", 5.2),
    ("CCOC(=O)C1=C(CN2CCN3C(=O)N(CC(C)C(=O)O)C[C@@H]3C2)NC(c2nccs2)=N[C@H]1c1ccc(F)cc1Cl (some centres undefined)", 2.7),
]

[Q] For the molecule COC(=O)C1=C(CN2CCN3C(=O)N(CC4(C(=O)O)CCC4)C[C@@H]3C2)NC(c2nccs2)=N[C@H]1c1ccc(F)cc1Cl , what CLhep predicted at 1 µM is on record?
[A] 2.3

[Q] For the molecule CCOC(=O)C1=C(CN2C[C@H]3CN(C4CC4)C(=O)N3C[C@@H]2C(=O)O)NC(c2nccs2)=N[C@H]1c1ccc(F)cc1Cl , what CLhep predicted at 1 µM is on record?
[A] 2.7
